Target: Sodium/myo-inositol cotransporter 2 (Homo sapiens)
Sequence (Q8WWX8 whole entry): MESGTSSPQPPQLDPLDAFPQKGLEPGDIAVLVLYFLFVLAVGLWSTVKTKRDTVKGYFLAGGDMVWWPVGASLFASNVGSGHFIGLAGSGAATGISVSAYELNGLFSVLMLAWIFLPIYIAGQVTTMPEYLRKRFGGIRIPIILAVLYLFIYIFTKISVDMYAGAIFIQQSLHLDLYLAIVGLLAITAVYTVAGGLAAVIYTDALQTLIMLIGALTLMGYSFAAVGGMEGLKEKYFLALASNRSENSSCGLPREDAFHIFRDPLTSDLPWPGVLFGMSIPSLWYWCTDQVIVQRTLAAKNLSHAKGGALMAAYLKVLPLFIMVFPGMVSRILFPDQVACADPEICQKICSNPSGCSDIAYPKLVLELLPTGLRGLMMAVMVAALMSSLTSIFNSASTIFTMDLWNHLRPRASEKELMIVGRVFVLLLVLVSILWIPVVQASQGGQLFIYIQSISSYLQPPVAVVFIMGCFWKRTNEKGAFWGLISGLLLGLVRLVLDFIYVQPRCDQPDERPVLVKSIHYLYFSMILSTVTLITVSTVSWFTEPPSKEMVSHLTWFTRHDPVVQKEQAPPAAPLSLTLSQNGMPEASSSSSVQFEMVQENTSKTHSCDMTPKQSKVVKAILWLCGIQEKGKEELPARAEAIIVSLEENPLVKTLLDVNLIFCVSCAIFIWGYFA
Test: Substrate uptake by the Sodium/myo-inositol cotransporter 2 (SMIT2, SLC5A11) as assessed by the fluorescent FLIPR membrane potential dye in HEK-293 JumpIN-SLC5A11 cells (PubChem AID: 1794826)
pEC50: −log10 of the molar value.

# Smiles text, Tested target, pEC50
data = [
    ("O[C@H]1[C@@H](O)[C@@H](O)[C@@H](O)[C@@H](O)[C@@H]1O", "Sodium/myo-inositol cotransporter 2 (Homo sapiens)", 3.98),
]
